Tested on: IGROV-1
Assay Notes: NCI tumour cell line growth inhibition, 48 h
The source made the active and inactive calls. Rule as the data show it: active = GI50 up to about 1.1 µM and inactive = higher.
// classify into 1 for active, -1 for inactive

N#Cc1c(C#N)c(-c2ccco2)n(-c2ccccc2)c1N: -1
N#Cc1ccc(Sc2nc3ccccc3[nH]2)cc1: -1
C=C(C)CCC1CCCCC(CN(C)C)C1=O (stereo unspecified): -1

Q. Please let me know the test result on file for "CCCC/N=C(/c1ccccc1)N1CCOCC1" .
A. -1

Q. Record lookup: outcome of this test for "N#Cc1nc(Nc2ccc(Cl)cc2)sc1N" ?
A. -1

Q. What did this assay record as the result for "Cc1cn(S(=O)(=O)c2ccccc2)c2c(OCc3ccccc3)cc([N+](=O)[O-])cc12" ?
A. -1

Q. For "CN(CCN(C)C(=O)CCn1cc(F)c(=O)[nH]c1=O)C(=O)CCn1cc(F)c(=O)[nH]c1=O" , which call appears in the assay record?
A. -1

Q. What call does the record list for "Cc1cc(O)c(C(c2ccncc2)c2c(O)cc(C)[nH]c2=O)c(=O)[nH]1" ?
A. -1

Q. Given "O[C@H]1[C@H](O)[C@@H](O)[C@@]2(O)CC[C@@H]1N2" , state the outcome it received in this test.
A. -1

Q. // return assay outcome for "O=C1NC(=O)C(c2c[nH]c3ccccc23)=C1c1cn(C(c2ccccc2)(c2ccccc2)c2ccccc2)cn1"
A. -1

Q. Recorded test call requested for COc1c(OC(C)=O)c(OC(C)=O)cc2c1-c1ccc(OC)c(=O)cc1C(NC(C)=O)CC2 (stereo unspecified)
A. 1

Q. Give the logged outcome of this assay for the following compound: Cn1c(=O)c2c(nc(N3CCOCC3)n2CCCNCC(O)c2ccc(O)c(O)c2)n(C)c1=O (stereo unspecified)
A. -1

Q. // param item: "Nc1nc(=O)c(/N=N/c2ccccc2)c(N)[nH]1" ; yields the recorded call
A. -1

Q. What outcome does the record of this test show for COc1ccc(C2c3cc4c(cc3OC(N3CCOCC3)C2C)OCO4)c(OC)c1 (stereo unspecified) ?
A. -1

Q. Which result was noted for this compound in the test: C=CCc1ccc(O)c(-c2cc(C3Oc4c(-c5cc(CC=C)ccc5O)cc(O)cc4[C@@H]3CO)ccc2O)c1 (stereo partly specified)
A. -1

Q. What classification did CSC1C=C(C(C)C)CCC1(C)SC (stereo unspecified) end up with in this test?
A. -1

Q. Tell me the assay call for COC1OC(=O)[C@H]2O[N+]([O-])=C(C)[C@@H]12 (stereo partly specified) please.
A. -1

Q. Would you mind telling me which call this test gave "COC(=O)[C@@H]1CSC(=S)N1C(=O)C[C@H]1CC=CC[C@H]1CC(=O)Sc1ccccc1" ?
A. -1

Q. Hello, I am checking results. What call was entered for "CC(C)c1cc(C(C)C)c(S(=O)(=O)NN)c(C(C)C)c1" ?
A. -1

Q. Status in this test for CCN1c2ccccc2C(C(SC)S(=O)(=O)c2ccc(C)cc2)c2c1[nH]c(=O)n(C)c2=O (stereo unspecified) ?
A. -1

Q. So what was the verdict on CCCNC(=O)C(C)(Cl)C(=O)c1ccccc1O (stereo unspecified) in this test?
A. -1

The measured values listed here are drawn from ChEMBL document CHEMBL1201862.
